Task for the reader: assign each of the following compounds its reported IC50.
# subject_of_test: human liver FBPase (Homo sapiens, UniProt P09467)
# Sequence (P09467 2-338 limits assumed): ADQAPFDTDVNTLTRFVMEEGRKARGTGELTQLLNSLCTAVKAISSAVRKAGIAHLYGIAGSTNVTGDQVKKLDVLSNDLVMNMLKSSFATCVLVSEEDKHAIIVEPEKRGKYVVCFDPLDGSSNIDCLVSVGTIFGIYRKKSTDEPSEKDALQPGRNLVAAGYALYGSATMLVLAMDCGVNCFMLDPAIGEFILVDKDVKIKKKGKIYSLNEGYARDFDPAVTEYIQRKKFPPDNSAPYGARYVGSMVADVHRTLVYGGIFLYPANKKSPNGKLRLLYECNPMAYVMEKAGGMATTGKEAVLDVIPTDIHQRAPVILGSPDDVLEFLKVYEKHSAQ
# assay_procedure: FBPase assay (malachite green phosphate release)
# run_parameters: recombinant human liver FBPase, 50 μM fructose-1,6-bisphosphate
Express it in nM; write the number only.

# lookup: IC50 of COCCc1sc(S(=O)(=O)NC(=O)Nc2cc(OC)cc(N)n2)cc1C 428

Do the same for COCCc1sc(S(=O)(=O)NC(=O)Nc2cc(Br)cc(N)n2)cc1C please 125

For CNC(=O)Nc1cc(OC)cc(NC(=O)NS(=O)(=O)c2csc3ccc(OC)cc23)n1 then? 66

How about this compound: CNC(=O)Nc1cc(OC)cc(NC(=O)NS(=O)(=O)c2cn(C)c3c(OCC(=O)N(C)C)cccc23)n1 3430

Param item: COCCc1sc(S(=O)(=O)NC(=O)Nc2cc(Br)cc(NC(N)=O)n2)cc1C 63

What do you get for Cc1cc(C(F)(F)F)cc(NC(=O)NS(=O)(=O)c2cc(C)c(CCO)s2)n1 ? 515

And what about the compound Cc1cc(C(F)(F)F)cc(NC(=O)NS(=O)(=O)c2csc(C)c2)n1 ? 831

// next record Nc1cc(Br)cc(NC(=O)NS(=O)(=O)c2cccc(Cl)c2)n1 396

Now the compound COc1cccc2c(S(=O)(=O)NC(=O)Nc3cc(SC)cc(N)n3)cn(C)c12 1480

Ok, now COCc1sc(S(=O)(=O)NC(=O)Nc2cc(Br)cc(N)n2)cc1C 225

Also need COCCc1sc(S(=O)(=O)NC(=O)Nc2cc(C(N)=O)cc(N)n2)cc1C , thanks. 42000

How about CNC(=O)Nc1cc(OC)cc(NC(=O)NS(=O)(=O)c2cn(C)c3c(OC)cccc23)n1 ? 312

Same for COCCc1sc(S(=O)(=O)NC(=O)Nc2cc(C(F)(F)F)cc(C(=O)OC)n2)cc1C 2160

Next compound up: CNC(=S)Nc1cc(OC)cc(NC(=O)NS(=O)(=O)c2cc(C)c(CCOC)s2)n1 185

Query COCCc1sc(S(=O)(=O)NC(=O)Nc2cc(C(F)(F)F)cc(-c3ccc(C(F)(F)F)cc3)n2)cc1C next 760

Then Cc1cccc(S(=O)(=O)NC(=O)Nc2cc(Br)ccn2)c1 ? 2070
